- system: human TCRvβ (BIM0444) (human)
- Sequence (A0A0K0K1A5 22-114): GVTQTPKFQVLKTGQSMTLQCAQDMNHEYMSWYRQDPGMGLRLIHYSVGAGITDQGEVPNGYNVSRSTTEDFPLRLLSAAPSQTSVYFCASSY
- experiment: SPR (Biacore): antibody captured via anti-human Fc on CM5, BIM0444 as analyte, 1:1 fit
Lab note: class by Kd, see group 1 = under 0.5 nM, group 2 = from 0.5 nM up to 4 nM, group 3 = 4 nM and over

binder	category.label
BJM0899 (antibody, V domains shown) VH: QVQLVQSGAEVKKPGSSVKVSCKASGHDFRLTYIHWVRQAPGQGLEWMGRISAGSGNVKYNEKFKGRVTITADTSTSTAYMELSSLRSEDTAVYYCAGSYYSYDVLDYWGQGTTVTVSS VL: DIQMTQSPSFLSASVGDRVTITCKASQNVADRVAWYQQKPGKAPKALIYSSSHRYKGVPSRFSGSGSGTEFTLTISSLQPEDFATYFCQQFKSYPLTFGQGTKLEIK	group 2
A-H.24 (scFv) scFv: QVQLVQSGAEVKKPGSSVKVSCKASGHDFHLWYIHWVRQAPGQGLEWMGRVSAGSGNVKYNEKFKGRVTITADTSTSTAYMELSSLRSEDTAVYYCAGSYYSYDVLDYWGQGTTVTVSSGGGGSGGGGSGGGGSGGGGSDIQMTQSPSFLSASVGDRVTITCKASQNVDNKVAWHQQKPGKAPKALIYSSSHRYKGVPSRFSGSGSGTEFTLTISSLQPEDFATYFCQQFKSYPLTFGQGTKLEIK	group 3
BJM0912 (antibody, V domains shown) VH: QVQLVQSGAEVKKPGSSVKVSCKASGHDFHLWYIHWVRQAPGQGLEWMGRVSAGSGNVKYNEKFKGRVTITADTSTSTAYMELSSLRSEDTAVYYCAGSYYSYDVLDYWGQGTTVTVSS VL: DIQMTQSPSFLSASVGDRVTITCKASQNVDNKVAWHQQKPGKAPKALIYSSSHRYKGVPSRFSGSGSGTEFTLTISSLQPEDFATYFCQQFKSYPLTFGQGTKLEIK	group 3

## Task Note: place this binder into its band. Item: A-H.61 (scFv) scFv: QVQLVQSGAEVKKPGSSVKVSCKASGHDFKLTYIHWVRQAPGQGLEWMGRVSAGSGNTKYNEKFKGRVTITADTSTSTAYMELSSLRSEDTAVYYCAVSYYSYDVLDYWGQGTTVTVSSGGGGSGGGGSGGGGSGGGGSDIQMTQSPSFLSASVGDRVTITCKASQNVDNRVAWHQQKPGKAPKALIYSSSHRYKGVPSRFSGSGSGTEFTLTISSLQPEDFATYFCQQFKSYPLTFGQGTKLEIK
## Result group 1

## Task Please report the category associated with A-H.68 (scFv, not shown: a dimerising Fc or GST) scFv: QVQLVQSGAEVKKPGSSVKVSCKASGHDFRLTYIHWVRQAPGQGLEWMGRISAGSGNVKYNEKFKGRVTITADTSTSTAYMELSSLRSEDTAVYYCAVSYYSYDVLDYWGQGTTVTVSSGGGGSGGGGSGGGGSGGGGSDIQMTQSPSFLSASVGDRVTITCKASQNVADRVAWYQQKPGKAPKALIYSSSHRYKGVPSRFSGSGSGTEFTLTISSLQPEDFATYFCQQFKSYPLTFGQGTKLEIK , nothing else.
## Result group 2

## Task Where would A-H.65 (scFv) scFv: QVQLVQSGAEVKKPGSSVKVSCKASGHDFKLTYIHWVRQAPGQGLEWMGRISAGSGNTKYNEKFKGRVTITADTSTSTAYMELSSLRSEDTAVYYCAVSYYSYDVLDYWGQGTTVTVSSGGGGSGGGGSGGGGSGGGGSDIQMTQSPSFLSASVGDRVTITCKASQNVGDRVVWHQQKPGKAPKALIYSSSHRYKGVPSRFSGSGSGTEFTLTISSLQPEDFATYFCQQFKSYPLTFGQGTKLEIK land among the classes by reported Kd?
## Result group 1

## Task Using the reported Kd, which band applies to BJM0498 (scFv, part only; not given: Fc scaffold making it bivalent, part only) scFv, part: QVQLVQSGAEVKKPGSSVKVSCKASGTDFKLTYIHWVRQAPGQGLEWMGRIFPGSGNVKYNEKFKGRVTITADTSTSTAYMELSSLRSEDTAVYYCAGSYYSYDVLDYWGQGTTVTVSSGGGGSGGGGSGGGGSGGGGSDIQMTQSPSFLSASVGDRVTITCKASQNVDNRVAWYQQKPGKAPKALIYSSSHRYKGVPSRFSGSGSGTEFTLTISSLQPEDFATYFCQQFKSYPLTFGQGTKLEIK ?
## Result group 3

## Task Category of A-H.13 (scFv) scFv: QVQLVQSGAEVKKPGSSVKVSCKASGTDFKLTYIHWVRQAPGQGLEWMGRIFPGSGNVKYNEKFKGRVTITADTSTSTAYMELSSLRSEDTAVYYCAGSYYSYDVLDYWGQGTTVTVSSGGGGSGGGGSGGGGSGGGGSDIQMTQSPSFLSASVGDRVTITCKASQNVDNRVAWYQQKPGKAPKALIYSSSHRYKGVPSRFSGSGSGTEFTLTISSLQPEDFATYFCQQFKSYPLTFGQGTKLEIK , please.
## Result group 2

## Task Band for A-H.60 (scFv) scFv: QVQLVQSGAEVKKPGSSVKVSCKASGHDFKLTYIHWVRQAPGQGLEWMGRVSAGSGNTKYNEKFKGRVTITADTSTSTAYMELSSLRSEDTAVYYCAVSYYSYDVLDYWGQGTTVTVSSGGGGSGGGGSGGGGSGGGGSDIQMTQSPSFLSASVGDRVTITCKASQNVGDRVAWHQQKPGKAPKALIYSSSHRYKGVPSRFSGSGSGTEFTLTISSLQPEDFATYFCQQFKSYPLTFGQGTKLEIK ?
## Result group 1
